- Tested on: CCRF-CEM leukemia
- measurementProtocol: NCI tumour cell line growth inhibition, 48 h
Listed here are molecules together with their documented TGI.

Illustrative cases are given below, each with its answer.
molecule: O=C1OC(CC(=O)c2ccc(Cl)cc2)C(Cl)=C1Cl (stereo not given)
TGI: > 100 µM

molecule: CNc1nc(N)cc(=O)[nH]1
TGI: > 100 µM

molecule: COC(=O)C1(C(=O)OC)N=C(C)OC1c1ccoc1 (stereo not given)
TGI: > 100 µM

molecule: c1ccc(-c2cn3nc(N4CCOCC4)sc3n2)cc1
TGI: > 100 µM

Entry COc1ccc(O)c2c(=O)ccccc12 , TGI reported as > 100 µM

Entry C1CCC(C(CC2CCCCN2)C2CCCCC2)CC1 (stereo not given) , TGI reported as 4.82 µM

Entry CNC[C@@H](NC(=O)c1ccc(-c2nc([C@H]3CC[C@H](O)[C@@H](F)C3)cnc2N)cc1F)c1cc(F)cc(Br)c1 , TGI reported as 39.1 µM

Entry c1ccc(-c2cccc(-c3ccccn3)n2)nc1 , TGI reported as > 100 µM

Entry CC(=O)Nc1ccc(S(=O)(=O)/N=C2\C=CC(=O)c3ccccc32)cc1 , TGI reported as 27.7 µM

Entry COC(=O)[C@@H](C)C[C@H](Cc1ccccc1)NC(=O)c1nc([C@@H](C[C@H](C(C)C)N(C)C(=O)[C@@H](NC(=O)[C@H]2CCCCN2C)C(C)C)OC(C)=O)sc1C(C)C , TGI reported as > 33.3 µM

* * *

- System: M14 melanoma
- measurementProtocol: NCI tumour cell line growth inhibition, 48 h
Listed here are compounds together with their documented TGI.

Illustrative cases are given below, each with its answer.
compound: Nc1nc2c(ncn2C2C=CC(COS(N)(=O)=O)C2)c(=O)[nH]1 (stereo unspecified)
TGI: > 100 µM
--
compound: Brc1cccc(Nc2ncnc3sc4c(c23)CCC2(C4)OCCO2)c1
TGI: 68.6 µM
--
compound: O=C1C(=C2SC(c3ccccc3)(c3ccccc3)c3ccccc32)C(=O)c2ccccc21
TGI: > 100 µM
--
compound: NC(CCCNCc1ccccc1)C(=O)O (stereo unspecified)
TGI: > 100 µM
--
compound: N=C(N)c1ccc(-c2ccc(-c3ccc(F)cc3)s2)nc1
TGI: 3.69 µM

Query CC(=O)O[C@H]1[C@@H]2OC(=O)C3(CC3)C2C[C@H]2O[C@]2(C)CC/C=C(\C)CCC[C@@H]1C (stereo partly specified) on M14 melanoma; TGI returned: 43.6 µM

Query O=C(Cc1ccc(OCc2ccccc2)cc1)NCc1ccc2c(c1)OCO2 on M14 melanoma; TGI returned: > 100 µM

Query COc1nc2ncc([C@@H](O)[C@H](O)CO)nc2c(=O)n1C on M14 melanoma; TGI returned: > 100 µM

Query COc1cc(Nc2cnc3ccc(N)cc3n2)cc(OC)c1OC on M14 melanoma; TGI returned: > 100 µM

Query C/C(=N\NC(=O)c1ccccc1N)c1ccccc1O on M14 melanoma; TGI returned: 57.5 µM

Query O=c1oc2ccccc2c(O)c1C(C/C(CCN1CCCC1)=N/O)c1ccccc1 (stereo unspecified) on M14 melanoma; TGI returned: > 100 µM

* * *

- Test system: HCT-15 colon
- measurementProtocol: NCI tumour cell line growth inhibition, 48 h
# cutoff 30 µM applies to TGI; >= gives fulfilled, < gives not fulfilled

As a guide, the following entries are already answered.
molecule: CC(CO)(CO)N1C(=O)C2C3c4ccccc4C(c4ccccc43)C2C1=O (configuration not stated)
targetEntity: HCT-15 colon
labelClass: fulfilled

molecule: CCN1C2=C(SC(=S)C1=C1SC(C(=O)OC)=C(C(=O)OC)S1)SC(=Nc1ccc(OC)cc1)C2=O
targetEntity: HCT-15 colon
labelClass: fulfilled

molecule: COc1ccc(N2CCOCC2)cc1
targetEntity: HCT-15 colon
labelClass: fulfilled

hey, is TGI for this one >= 30 µM? Clc1ccc(-c2nc(-c3ccccc3)cn3ccnc23)cc1
not fulfilled

hey, is TGI for this one >= 30 µM? CC12C=C[C@]3(CC[C@@H]4[C@@](C)(CO)CCC[C@]4(C)C3CC1)C2 (some centres not stated)
fulfilled

hey, is TGI for this one >= 30 µM? CSc1cc(Cl)c(C)cc1S(=O)(=O)NC(=O)Nc1ccc(Cl)cc1
fulfilled

hey, is TGI for this one >= 30 µM? C[C@@]1(O)C2C3CC4C5C3C1[C@](O)(C42)[C@H]5Br (some centres not stated)
fulfilled

hey, is TGI for this one >= 30 µM? CCOC(=O)C#Cc1c(C(=O)OCC)nnn1Cc1ccc(C(F)(F)F)cc1
not fulfilled

hey, is TGI for this one >= 30 µM? O=C(O)C1(Cc2ccccc2)Cc2ccccc2C1
fulfilled

hey, is TGI for this one >= 30 µM? CC(=O)O[C@H]1[C@@H]2OC(=O)C3(CC3)C2C[C@H]2O[C@]2(C)CC/C=C(\C)CCC[C@@H]1C (some centres not stated)
fulfilled
